System: MM1s cells
Assay: Drug survival of MM1s cells in mono- or multi-culture in classic 2D cultures and 3DTEBM, by flow cytometry
Format: cell-based
Details: Homo sapiens, MM1.S, 24 h, 3DTEBM mono-culture
Procedure: MM1s-GFP cells (30×10^3 cells/well) were cultured in mono-culture or multi-culture conditions [CD138^− stromal cells-DiD (10×10^3 cells/well), HUVECs-DiD (10×10^3 cells/well), and fibronectin 100 ng/ml)] in 3DTEBM and classic 2D cultures. […] Cell proliferation assay was assessed by flow cytometry as previously described. […] Effect of drug treatment in MM1s-GFP cells was measured and normalized to non-treated conditions. […]
property: IC50

IC50 recorded for this molecule, "CC(C)C[C@H](NC(=O)[C@H](Cc1ccccc1)NC(=O)c1cnccn1)B(O)O" , is 15 to 20 nM
